target.desc: CDK6/CyclinD3 (Homo sapiens, UniProt Q00534)
Construct: purchased Wuxi Biortus Biosciences Co. Ltd
Sequence (Q00534 whole entry, species assumed): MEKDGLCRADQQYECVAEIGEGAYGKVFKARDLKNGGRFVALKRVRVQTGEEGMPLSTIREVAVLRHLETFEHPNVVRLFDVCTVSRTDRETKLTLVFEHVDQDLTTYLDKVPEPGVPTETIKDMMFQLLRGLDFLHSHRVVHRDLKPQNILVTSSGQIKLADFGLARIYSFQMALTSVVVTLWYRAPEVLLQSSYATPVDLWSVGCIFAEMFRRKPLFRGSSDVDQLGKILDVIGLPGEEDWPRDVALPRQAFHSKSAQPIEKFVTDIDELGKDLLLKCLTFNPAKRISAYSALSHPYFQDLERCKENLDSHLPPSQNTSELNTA
Sequence (P30281 whole entry partner, species assumed): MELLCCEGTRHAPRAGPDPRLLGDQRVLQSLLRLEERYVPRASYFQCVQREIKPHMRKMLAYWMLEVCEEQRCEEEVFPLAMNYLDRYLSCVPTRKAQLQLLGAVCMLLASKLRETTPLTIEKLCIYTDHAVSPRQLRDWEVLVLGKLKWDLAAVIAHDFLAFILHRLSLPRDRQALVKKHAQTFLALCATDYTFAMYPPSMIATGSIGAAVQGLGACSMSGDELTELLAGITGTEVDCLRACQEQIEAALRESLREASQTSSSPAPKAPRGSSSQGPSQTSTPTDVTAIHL
protocol.notes: In-vitro kinase inhibitory activity, CDK6/CyclinD3 (Caliper EZ Reader II mobility shift)
Assay type: biochemical
condition: CDK6/CyclinD3 20 nM, ATP 2 mM, Peptide 1 μM, 27° C., 120 min; read-out: IC50 (half maximal inhibitory concentration, nM) CDK6
Structures can show the parent of a compound that is named as a salt.
Entries and their IC50 values follow.

{"compound": "CC(=O)c1c(C)c2cnc(Nc3ccc(N4CCN(CCN5CCC(CC6CCN(c7ccc8c(c7Cl)CN([C@H]7CCC(=O)NC7=O)C8=O)CC6)CC5)CC4)cn3)nc2n(C2CCCC2)c1=O [Compound 40, dihydrochloride]", "target.desc": "CDK6/CyclinD3 (Homo sapiens, UniProt Q00534)", "IC50 [nM]": 23.3}
{"compound": "CC(=O)c1c(C)c2cnc(Nc3ccc(N4CCN(CCN5CCC(CN6CCN(c7ccc8c(c7)CN(C7CCC(=O)NC7=O)C8=O)CC6)CC5)CC4)cn3)nc2n(C2CCCC2)c1=O (single isomer, unassigned)", "target.desc": "CDK6/CyclinD3 (Homo sapiens, UniProt Q00534)", "IC50 [nM]": 14.5}
{"compound": "CC(=O)c1c(C)c2cnc(Nc3ccc(N4CCN(CCN5CCN(c6c(F)cc7c(c6F)CN(C6CCC(=O)NC6=O)C7=O)CC5)CC4)cn3)nc2n(C2CCCC2)c1=O (stereo not drawn)", "target.desc": "CDK6/CyclinD3 (Homo sapiens, UniProt Q00534)", "IC50 [nM]": 18.2}
{"compound": "CC(=O)c1c(C)c2cnc(Nc3ccc(N4CCN(CCCCN5CCC(CN6CCN(c7ccc8c(c7)CN(C7CCC(=O)NC7=O)C8=O)CC6)CC5)CC4)cn3)nc2n(C2CCCC2)c1=O (stereo not drawn)", "target.desc": "CDK6/CyclinD3 (Homo sapiens, UniProt Q00534)", "IC50 [nM]": 6.6}
{"compound": "CN(C)C(=O)c1cc2cnc(Nc3ccc(N4CCN(CCN5CCC(CN6CCN(c7ccc8c(c7)CN([C@H]7CCC(=O)NC7=O)C8=O)CC6)CC5)CC4)cn3)nc2n1C1CCCC1 [Compound 29, trihydrochloride]", "target.desc": "CDK6/CyclinD3 (Homo sapiens, UniProt Q00534)", "IC50 [nM]": 42.1}
{"compound": "CC(=O)c1c(C)c2cnc(Nc3ccc(N4CCN(CCN5CCC(CC6CCN(c7ccc8c(c7)CN([C@H]7CCC(=O)NC7=O)C8=O)CC6)CC5)CC4)cn3)nc2n(C2CCCC2)c1=O [Compound 38, dihydrochloride]", "target.desc": "CDK6/CyclinD3 (Homo sapiens, UniProt Q00534)", "IC50 [nM]": 6.73}
{"compound": "CC(=O)c1c(C)c2cnc(Nc3ccc(N4CCN(CCN5CCN(c6cc7c(cc6F)C(=O)N(C6CCC(=O)NC6=O)C7)CC5)CC4)cn3)nc2n(C2CCCC2)c1=O.Cl.Cl (stereo not drawn) [Compound 27, dihydrochloride]", "target.desc": "CDK6/CyclinD3 (Homo sapiens, UniProt Q00534)", "IC50 [nM]": 29.6}
{"compound": "COc1c(N2CCN(CCN3CCN(c4ccc(Nc5ncc6c(C)c(C(C)=O)c(=O)n(C7CCCC7)c6n5)nc4)CC3)CC2)ccc2c1CN(C1CCC(=O)NC1=O)C2=O (stereo not drawn) [Compound 19, dihydrochloride]", "target.desc": "CDK6/CyclinD3 (Homo sapiens, UniProt Q00534)", "IC50 [nM]": 20.5}
{"compound": "CN(C)C(=O)c1cc2cnc(Nc3ccc(N4CCN(CCN5CCC(CN6CCN(c7ccc8c(c7)CN(C7CCC(=O)NC7=O)C8=O)CC6)CC5)CC4)cn3)nc2n1C1CCCC1 (stereo not drawn) [Compound 26, trihydrochloride]", "target.desc": "CDK6/CyclinD3 (Homo sapiens, UniProt Q00534)", "IC50 [nM]": 55.2}
{"compound": "CC(=O)c1c(C)c2cnc(Nc3ccc(N4CCN(CCN5CCN(c6ccc7c(c6Cl)CN(C6CCC(=O)NC6=O)C7=O)CC5)CC4)cn3)nc2n(C2CCCC2)c1=O (stereo not drawn) [Compound 20]", "target.desc": "CDK6/CyclinD3 (Homo sapiens, UniProt Q00534)", "IC50 [nM]": 19.6}
{"compound": "CC(=O)c1c(C)c2cnc(Nc3ccc(N4CCN(CCN5CCC(CN6CCN(c7ccc8c(c7)CN(C7CCC(=O)NC7=O)C8=O)CC6)CC5)CC4)cn3)nc2n(C2CCCC2)c1=O.Cl.Cl.Cl (single isomer, unassigned) [Compound 4, trihydrochloride]", "target.desc": "CDK6/CyclinD3 (Homo sapiens, UniProt Q00534)", "IC50 [nM]": 9.7}
{"compound": "Cc1nc2c(F)cc(-c3nc(Nc4ccc(CN5CCN(CC(=O)N6CCC(C(=O)N7CCN(c8ccc9c(c8)CN([C@H]8CCC(=O)NC8=O)C9=O)CC7)CC6)CC5)cn4)ncc3F)cc2n1C(C)C", "target.desc": "CDK6/CyclinD3 (Homo sapiens, UniProt Q00534)", "IC50 [nM]": 42.4}
{"compound": "CC(=O)c1c(C)c2cnc(Nc3ccc(N4CCN(CCN5CCN(c6ccc7c(c6Cl)CN(C6CCC(=O)NC6=O)C7=O)CC5)CC4)cn3)nc2n(C2CCCC2)c1=O (stereo not drawn) [Compound 21, dihydrochloride]", "target.desc": "CDK6/CyclinD3 (Homo sapiens, UniProt Q00534)", "IC50 [nM]": 37.1}
{"compound": "COc1cc(N2CCN(CCN3CCN(c4ccc(Nc5ncc6c(C)c(C(C)=O)c(=O)n(C7CCCC7)c6n5)nc4)CC3)CC2)cc2c1C(=O)N(C1CCC(=O)NC1=O)C2 (stereo not drawn) [Compound 17, dihydrochloride]", "target.desc": "CDK6/CyclinD3 (Homo sapiens, UniProt Q00534)", "IC50 [nM]": 29.6}
{"compound": "CC(=O)c1c(C)c2cnc(Nc3ccc(N4CCN(CCN5CCN(c6ccc7c(c6)CN(C6CCC(=O)NC6=O)C7=O)CC5)CC4)cn3)nc2n(C2CCCC2)c1=O (single isomer, unassigned)", "target.desc": "CDK6/CyclinD3 (Homo sapiens, UniProt Q00534)", "IC50 [nM]": 21.3}
{"compound": "COc1c(N2CCN(CCN3CCN(c4ccc(Nc5ncc6c(C)c(C(C)=O)c(=O)n(C7CCCC7)c6n5)nc4)CC3)CC2)ccc2c1CN(C1CCC(=O)NC1=O)C2=O (stereo not drawn) [Compound 18]", "target.desc": "CDK6/CyclinD3 (Homo sapiens, UniProt Q00534)", "IC50 [nM]": 37.8}
{"compound": "Cc1nc2c(F)cc(-c3nc(Nc4ccc(CN5CCN(CCN6CCN(c7ccc8c(c7)CN(C7CCC(=O)NC7=O)C8=O)CC6)CC5)cn4)ncc3F)cc2n1C(C)C (stereo not drawn) [Compound 12, trihydrochloride]", "target.desc": "CDK6/CyclinD3 (Homo sapiens, UniProt Q00534)", "IC50 [nM]": 23.2}
{"compound": "CC(=O)c1c(C)c2cnc(Nc3ccc(N4CCN(CCC5CCN(c6ccc7c(c6)CN(C6CCC(=O)NC6=O)C7=O)CC5)CC4)cn3)nc2n(C2CCCC2)c1=O (stereo not drawn)", "target.desc": "CDK6/CyclinD3 (Homo sapiens, UniProt Q00534)", "IC50 [nM]": 26.6}

----------
System: human breast cancer MCF-7 cells
protocol.notes: Growth inhibition of tumor cells cultured in vitro, CellTiter-Glo, MCF-7
Assay type: cell-based
condition: Homo sapiens, MCF7, 72 h, MCF-7, 72 h, CellTiter-Glo
Counter-ions that a name gives are not always drawn.

{"compound": "COc1c(N2CCN(CCN3CCN(c4ccc(Nc5ncc6c(C)c(C(C)=O)c(=O)n(C7CCCC7)c6n5)nc4)CC3)CC2)ccc2c1CN(C1CCC(=O)NC1=O)C2=O (stereo not drawn)", "inequality.sign": ">", "IC50, nM": 10000}
{"compound": "CC(=O)c1c(C)c2cnc(Nc3ccc(N4CCN(CCN5CCC(CC6CCN(c7ccc8c(c7)CN(C7CCC(=O)NC7=O)C8=O)CC6)CC5)CC4)cn3)nc2n(C2CCCC2)c1=O (stereo not drawn) [Compound 11, dihydrochloride]", "inequality.sign": ">", "IC50, nM": 10000}
{"compound": "COc1cc(N2CCN(CCN3CCN(c4ccc(Nc5ncc6c(C)c(C(C)=O)c(=O)n(C7CCCC7)c6n5)nc4)CC3)CC2)cc2c1C(=O)N(C1CCC(=O)NC1=O)C2 (stereo not drawn)", "inequality.sign": ">", "IC50, nM": 10000}
{"compound": "CC(=O)c1c(C)c2cnc(Nc3ccc(N4CCN(CCN5CCN(c6cc7c(cc6F)C(=O)N(C6CCC(=O)NC6=O)C7)CC5)CC4)cn3)nc2n(C2CCCC2)c1=O.Cl.Cl (stereo not drawn) [Compound 27, dihydrochloride]", "inequality.sign": "=", "IC50, nM": 71.6}
{"compound": "CC(=O)c1c(C)c2cnc(Nc3ccc(N4CCN(CCN5CCN(c6ccc7c(c6)CN(C6CCC(=O)NC6=O)C7=O)CC5)CC4)cn3)nc2n(C2CCCC2)c1=O (single isomer, unassigned)", "inequality.sign": ">", "IC50, nM": 10000}
{"compound": "CC(=O)c1c(C)c2cnc(Nc3ccc(N4CCN(CCN5CCC(OC6CCN(c7ccc8c(c7)CN(C7CCC(=O)NC7=O)C8=O)CC6)CC5)CC4)cn3)nc2n(C2CCCC2)c1=O (stereo not drawn) [Compound 9, dihydrochloride]", "inequality.sign": ">", "IC50, nM": 10000}
{"compound": "CC(=O)c1c(C)c2cnc(Nc3ccc(N4CCN(CCN5CCC(CN6CCN(c7c(F)cc8c(c7F)CN(C7CCC(=O)NC7=O)C8=O)CC6)CC5)CC4)cn3)nc2n(C2CCCC2)c1=O (stereo not drawn) [Compound 34, trihydrochloride]", "inequality.sign": "=", "IC50, nM": 442}
{"compound": "CC(=O)c1c(C)c2cnc(Nc3ccc(N4CCN(CCCCN5CCC(CN6CCN(c7ccc8c(c7)CN(C7CCC(=O)NC7=O)C8=O)CC6)CC5)CC4)cn3)nc2n(C2CCCC2)c1=O (stereo not drawn)", "inequality.sign": "=", "IC50, nM": 30.4}
{"compound": "CC(=O)c1c(C)c2cnc(Nc3ccc(N4CCN(CCN5CCC(CN6CCN(c7ccc8c(c7)CN(C7CCC(=O)NC7=O)C8=O)CC6)CC5)CC4)cn3)nc2n(C2CCCC2)c1=O.Cl.Cl.Cl (single isomer, unassigned) [Compound 4, trihydrochloride]", "inequality.sign": "=", "IC50, nM": 50.5}
{"compound": "CC(=O)c1c(C)c2cnc(Nc3ccc(N4CCN(CCN5CCN(c6ccc7c(c6Cl)CN(C6CCC(=O)NC6=O)C7=O)CC5)CC4)cn3)nc2n(C2CCCC2)c1=O (stereo not drawn)", "inequality.sign": ">", "IC50, nM": 10000}
{"compound": "CC(=O)c1c(C)c2cnc(Nc3ccc(N4CCN(CCN5CCC(C(=O)N6CCN(c7ccc8c(c7)CN([C@H]7CCC(=O)NC7=O)C8=O)CC6)CC5)CC4)cn3)nc2n(C2CCCC2)c1=O", "inequality.sign": "=", "IC50, nM": 821}
{"compound": "CN(C)C(=O)c1cc2cnc(Nc3ccc(N4CCN(CCN5CCC(CN6CCN(c7ccc8c(c7)CN([C@H]7CCC(=O)NC7=O)C8=O)CC6)CC5)CC4)cn3)nc2n1C1CCCC1 [Compound 29, trihydrochloride]", "inequality.sign": "=", "IC50, nM": 106}
